Attribution: paper PMC3967790

# MEASUREMENT_SETUP: FVB, mouse, brain, oral, 20 mg/kg
VALUE_TYPE: concentration at 1 h (ng/mL)
Supply the numeric figure in ng/mL, leaving out any unit text.

Exercise: Quickly give me recorded concentration at 1 h for `C#Cc1cccc(Nc2ncnc3cc(OCCOC)c(OCCOC)cc23)c1`
Solution: 76.4

* * *

# TEST_SUMMARY: Equilibrium solubility of elacridar in microemulsion components
# Format: physicochemical
# MEASUREMENT_SETUP: Captex 355 (oil), 37 °C, oil or lipid, thermodynamic from solid
VALUE_TYPE: solubility at 24 h (µg/mL)
Supply the numeric figure in µg/mL, leaving out any unit text.

Exercise: Quickly give me recorded solubility at 24 h for `COc1cc2c(cc1OC)CN(CCc1ccc(NC(=O)c3cccc4c(=O)c5cccc(OC)c5[nH]c34)cc1)CC2`
Solution: 300
